Reference source: paper PMC5869712

Test: Pharmacokinetics in Sprague Dawley rats
Type: in vivo
Conditions: both sexes, Sprague Dawley, rat, plasma, iv 5.0 mg/kg
REPORTED ENDPOINT: clearance (mL/min/kg)
Your answer should be a plain number; it is taken to be in mL/min/kg.

Entry under review: C=CC(=O)N[C@@H]1CCCN(c2ncnc3[nH]ccc23)C1 . Reported clearance?
97.7

====

Target: PKG1α (Homo sapiens)
Sequence (Q13976 1-671): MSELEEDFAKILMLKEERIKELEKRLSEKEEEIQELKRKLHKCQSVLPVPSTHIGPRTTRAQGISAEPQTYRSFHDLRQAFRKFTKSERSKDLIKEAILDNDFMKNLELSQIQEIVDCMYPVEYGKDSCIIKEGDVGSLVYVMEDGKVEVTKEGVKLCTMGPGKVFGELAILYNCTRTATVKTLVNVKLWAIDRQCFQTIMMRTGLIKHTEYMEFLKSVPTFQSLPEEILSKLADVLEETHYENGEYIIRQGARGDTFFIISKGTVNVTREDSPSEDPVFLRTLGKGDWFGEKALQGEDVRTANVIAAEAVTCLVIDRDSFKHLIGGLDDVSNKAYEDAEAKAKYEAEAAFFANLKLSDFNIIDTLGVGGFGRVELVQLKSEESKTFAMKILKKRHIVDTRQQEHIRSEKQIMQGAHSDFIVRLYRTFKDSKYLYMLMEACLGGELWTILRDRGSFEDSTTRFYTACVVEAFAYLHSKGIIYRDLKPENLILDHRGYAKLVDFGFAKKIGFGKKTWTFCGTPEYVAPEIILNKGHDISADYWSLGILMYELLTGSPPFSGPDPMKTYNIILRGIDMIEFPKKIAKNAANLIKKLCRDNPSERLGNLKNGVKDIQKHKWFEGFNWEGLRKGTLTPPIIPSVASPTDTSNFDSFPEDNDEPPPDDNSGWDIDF
REPORTED ENDPOINT: IC50

Entry under review: C=CC(=O)N[C@@H]1CCCN(c2ncnc3[nH]ccc23)C1 [RB1] . Reported IC50?
> 800 nM

====

Test system: IFN-γ-induced JAK/STAT1 phosphorylation in U2OS cells (JAK1/JAK2)
Assay: STAT1 phosphorylation induced by IFN-γ in U2OS cells, Western blot
Details: Homo sapiens, U2OS, read-out: IC50 (nM) JAK2
REPORTED ENDPOINT: IC50

# query: IC50 | item C=CC(=O)N[C@@H]1CCCN(c2ncnc3[nH]ccc23)C1 | system: IFN-γ-induced JAK/STAT1 phosphorylation in U2OS cells (JAK1/JAK2)
> 50000 nM

====

Assay: Pharmacokinetics in Sprague Dawley rats
Assay type: in vivo
Details: both sexes, Sprague Dawley, rat, plasma, oral, 10 mg/kg, po 10 mg/kg vs iv 5.0 mg/kg, read-out: F (oral bioavailability)
REPORTED ENDPOINT: bioavailability (%)
Your answer should be a plain number; it is taken to be in %.

Entry under review: C=CC(=O)N[C@@H]1CCCN(c2ncnc3[nH]ccc23)C1 . Reported bioavailability?
72.5

====

Assay: Pharmacokinetics in Sprague Dawley rats
Type: in vivo
Conditions: both sexes, Sprague Dawley, rat, iv 5.0 mg/kg, plasma
REPORTED ENDPOINT: Cmax (ng/mL)
Your answer should be a plain number; it is taken to be in ng/mL.

Entry under review: C=CC(=O)N[C@@H]1CCCN(c2ncnc3[nH]ccc23)C1 [RB1] . Reported Cmax?
1090
